assay: pKa value determination by 1H NMR; type: physicochemical; conditions: sodium phosphate buffer with NaCl and DMSO-d6, reporter proton H2; read-out: pKa of the carboxylic group
experimental-endpoint: pKa

[
  {
    "compound": "O=C(CC(C(=O)O)c1ccc2c(c1)OCO2)c1ccc2c(c1)OCO2 (stereo not shown)",
    "observed": 3.99
  }
]
